# experimental_target: T1, AS325 VHH (camel-derived)
# T1 construct: One of the 10 different camel-derived nanobodies; not shown: His tag (VHH-His)
# T1 sequence (VHH, as listed by the source): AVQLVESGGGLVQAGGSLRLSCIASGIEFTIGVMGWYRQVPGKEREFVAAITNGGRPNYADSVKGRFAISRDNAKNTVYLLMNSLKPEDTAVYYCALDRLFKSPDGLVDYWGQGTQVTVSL
# method_summary: indirect ELISA, VHH coated

binder: R166.H8 (antibody, V domains shown, Rabbit monoclonal; also called clone R166.H8) VH: QSVEESGGRLVTPGTPLTLTCTVSGFSLSSFAMSWVRQAPGKGLEWIGIIYATGGTRDYATWAAGRFTISKTSTTVGLKMTSPTTEDTATYFCARDRSPDYSAAFNLWGQGTLVTVSS VL: IVMTQTPSSKSVPVGDTVTINCQASESVYSNNHLAWFQQKPGQPPKLLIYSASTLESGVPSRFKGSGSGTQFTLTISGVQCDDAATYYCAGYKSSDTDGTSFGGGTEVVVKG
binding result: binds

binder: R166.H10 (antibody, V domains shown, Rabbit monoclonal; also called clone R166.H10) VH: QSLEESGGRLVTPGTPLTLTCTASGFSLSSYWMSWVRQAPGKGLEYIGIISGSGSTYYATWAKGRFTISKTSSTTVDLKITSPTTEDTATYFCARGNPHYSFGFNIWGPGTLVTVSL VL: DIVMTQTPASVSEPVGGTVTINCQASESIYSWLSWYQQKPGQPPKLLIYSASYLASGVPSQFRGSGSGTEYTLTISDLECADAATYYCQYNYDSGDGITNGFGGGTEVVVKG
binding result: binds

binder: R166.E7 (antibody, V domains shown, Rabbit monoclonal; also called clone R166.E7) VH: QSVEESGGRLVTPGTPLTLTCTVSGFSLSSFAMSWVRQAPGKGLEWIGIIYTGGTRDYATWAKGRFTISKTSTTVDLKMTSPTTEDTATYFCARDRSPDYSAAFNLWGQGTLVTVSS VL: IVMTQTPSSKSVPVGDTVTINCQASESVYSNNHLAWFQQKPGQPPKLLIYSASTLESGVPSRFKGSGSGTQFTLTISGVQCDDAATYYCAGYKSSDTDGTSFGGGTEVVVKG
binding result: binds

meta.source: patent US20220281997A1
